Reference for the values: patent US20250353833A1

This section presents compounds with their documented SI DPP9/DPP8 values.
assay system: DPP9 (Homo sapiens (Human))
Sequence (Q86TI2 whole entry): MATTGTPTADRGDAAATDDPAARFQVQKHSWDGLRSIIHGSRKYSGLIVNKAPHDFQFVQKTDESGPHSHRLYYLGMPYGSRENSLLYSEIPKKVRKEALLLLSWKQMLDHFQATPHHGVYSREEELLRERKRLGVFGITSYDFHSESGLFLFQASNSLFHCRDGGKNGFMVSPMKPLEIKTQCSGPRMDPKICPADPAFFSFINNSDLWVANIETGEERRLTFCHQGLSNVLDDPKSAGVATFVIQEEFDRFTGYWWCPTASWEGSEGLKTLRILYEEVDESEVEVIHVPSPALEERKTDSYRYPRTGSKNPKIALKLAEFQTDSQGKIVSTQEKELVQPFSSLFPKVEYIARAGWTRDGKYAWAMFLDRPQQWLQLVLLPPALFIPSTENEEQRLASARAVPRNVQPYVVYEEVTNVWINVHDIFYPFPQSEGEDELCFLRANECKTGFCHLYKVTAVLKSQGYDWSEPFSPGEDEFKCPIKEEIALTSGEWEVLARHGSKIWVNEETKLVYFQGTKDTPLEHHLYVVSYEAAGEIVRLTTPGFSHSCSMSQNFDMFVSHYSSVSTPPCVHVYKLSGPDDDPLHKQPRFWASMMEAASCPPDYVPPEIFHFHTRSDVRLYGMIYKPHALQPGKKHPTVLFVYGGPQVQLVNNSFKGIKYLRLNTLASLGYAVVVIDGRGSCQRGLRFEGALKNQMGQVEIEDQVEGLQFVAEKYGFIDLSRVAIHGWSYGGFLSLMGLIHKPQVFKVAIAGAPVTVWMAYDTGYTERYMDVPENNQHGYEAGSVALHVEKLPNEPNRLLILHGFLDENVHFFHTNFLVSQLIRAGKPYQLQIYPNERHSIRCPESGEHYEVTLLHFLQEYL
test description: DPP9 enzyme inhibition, IC50 measurement (Ala-Pro-pNA release)
Format: biochemical
stated conditions: Table 4; selectivity index
API doc: respond with a numeric literal and nothing else, no unit.

// worked examples, SI DPP9/DPP8 included
Cl.N#Cc1ccc(C(=O)NC23CC4CC(CC(NCC(=O)N5Cc6ccc(F)cc6C5)(C4)C2)C3)cc1 [Compound 96] :: 12
Cl.O=C(CNC12CC3CC(C1)CC(NS(=O)(=O)c1ccc(-c4ccccc4)cc1)(C3)C2)N1Cc2ccc(F)cc2C1 [Compound 102] :: 4
Cc1ccc2c(c1)CN(C(=O)CNC13CC4CC(C1)CC(NC(=O)OC(C)(C)C)(C4)C3)C2 [Compound 84] :: 23

Query: Give SI DPP9/DPP8; test system DPP9 (Homo sapiens (Human)); compound Cl.O=C(NC12CC3CC(CC(NCC(=O)N4Cc5ccc(F)cc5C4)(C3)C1)C2)c1ccc(-c2cccnc2)cc1 [Compound 88]
Result: 24

Query: # return SI DPP9/DPP8 for Cl.O=C(NC12CC3CC(CC(NCC(=O)N4Cc5ccc(F)cc5C4)(C3)C1)C2)c1ccc(-c2ccccc2)s1 [Compound 97] , test system: DPP9 (Homo sapiens (Human))
Result: 11
